- Experimental Protocol: folding enthalpy; higher = less favourable; fluorescence melt of hairpins on a sequencing array, two-state fit
- Run Conditions: sodium 0.088 M
Quantity Measured: folding enthalpy

// below: answered sequences
Query: Looking for the measured folding enthalpy of GATCGACGACTCGATC ((((((....)))))) , can you help?
Response: -36.3 kcal/mol

Query: Given the entry TTACCGAAAGGTAA (((((....))))) , report its measured folding enthalpy.
Response: -16.7 kcal/mol

Query: GET /values?readout=folding enthalpy&item= GAGTTACGAAAGTATCTC (((.(((....))).)))
Response: -26 kcal/mol

Query: // lookup folding enthalpy for GTCGACGAAAGTCGCGAC ((((((....)))..)))
Response: -12.6 kcal/mol

Query: What value of folding enthalpy has been reported for the following sequence? GATCATAGCTATGATC ((((((....))))))
Response: -47.4 kcal/mol

Query: // returns reported folding enthalpy for input GATCGGCATGCCGATC ((((((....))))))
Response: -44.7 kcal/mol

Query: Request the reported folding enthalpy associated with CCGGAGAAATCCGG (((((....)))))
Response: -21.4 kcal/mol

Query: Would you kindly share the measured folding enthalpy for GATCTTTGCAAGATC ((((((...)))))) ?
Response: -34.7 kcal/mol

Query: For GTGTTCGAAAGAAACCAC ((((((....)))..))) , what is its reported folding enthalpy?
Response: -10.4 kcal/mol

Query: Form field: reported folding enthalpy of GATCCCGAAAGGGAGATC ((((((....)))..)))
Response: -20.6 kcal/mol

Further cases:
Query: // folding enthalpy lookup, key: GCGCATCGAAAGATTCGC (((.(((....))).)))
Response: -38.9 kcal/mol

Query: Can you share its folding enthalpy? I mean this sequence: CGCGGAAGGGTCCGCG ((((((....))))))
Response: -29.1 kcal/mol

---

- Experimental Protocol: folding enthalpy; higher = less favourable; fluorescence melt of hairpins on a sequencing array, two-state fit
- Run Conditions: sodium 0.088 M
Hi, to clarify the labels: Criterion met covers folding enthalpy from -30 kcal/mol upward, Criterion not met covers anything below -30 kcal/mol.

See these solved cases before continuing.
Query: Say whether GGGAATGAAAATTCCC ((((((....)))))) shows folding enthalpy of -30 kcal/mol or more.
Response: Criterion not met

Query: Does the reported folding enthalpy for GTTCTCGAAAGAGTAAAC ((((((....)))..))) fall at or above the -30 kcal/mol mark?
Response: Criterion met

Query: Quick check: does GCTCCGCGAAAGCGTCGC ((..(((....)))..)) have folding enthalpy greater than or equal to -30 kcal/mol?
Response: Criterion met

Query: Does folding enthalpy meet or surpass -30 kcal/mol for GTGTTGTCGAAAGACCAC (((..(((....)))))) ?
Response: Criterion met

Query: Please tell me: is the sequence GCTTAGCGAAAGCTTAGC (((.(((....))).))) at or over -30 kcal/mol in terms of folding enthalpy?
Response: Criterion not met

Continuing:
Query: Confirm if folding enthalpy reported for the sequence GATCGGCACACCGATC ((((((....)))))) is -30 kcal/mol or above.
Response: Criterion not met

Query: Please indicate if the recorded folding enthalpy for GAGTTGGGAAACTAACTC (((((.(....).))))) meets or exceeds -30 kcal/mol.
Response: Criterion not met
